Tested on: UACC-62 melanoma
Assay: NCI-60 one-dose screen, 48 h (100 = growth as untreated, 0 = no growth, -100 = all killed)
Conditions: 10 µM unless noted
This is part of a sample that, as a whole, favours compounds with a hit. Of some 83,000 tested, about 20% had one in any assay.
The following ranges of growth define the classes used here: low range: < 50%; mid range: ≥ 50% and < 90%; high range: ≥ 90%

Compound: O=C(Nc1nc2c(C(F)(F)F)cccc2s1)c1cc(Cl)ccc1O
Target entity: UACC-62 melanoma
Discrete label: low range
--
Compound: COc1cc(NC(=O)NCc2ccco2)ccc1-c1ccc(NC(=O)NCc2ccco2)cc1OC
Target entity: UACC-62 melanoma
Discrete label: low range
--
Compound: OCCCc1n(Cc2ccc3ccccc3c2)c2ccccc2[n+]1Cc1ccc2ccccc2c1
Target entity: UACC-62 melanoma
Discrete label: low range
--
Compound: CSc1nc(N)c2c(n1)N(C)C=NS2(=O)=O
Target entity: UACC-62 melanoma
Discrete label: high range
--
Compound: Cc1[nH]cnc1/C=C1\SC(N2CCCCC2)=NC1=O
Target entity: UACC-62 melanoma
Discrete label: high range
--
Compound: COc1cc(/C=C2\SC(N3CCCCC3)=NC2=O)ccc1OCCCCCCOc1ccc(/C=C2\SC(N3CCCCC3)=NC2=O)cc1OC
Target entity: UACC-62 melanoma
Discrete label: low range
--
Compound: O=C1Nc2ccc(Cl)cc2/C1=C/c1cccs1
Target entity: UACC-62 melanoma
Discrete label: mid range
--
Compound: CCCCc1ccc(C(N)=O)nc1
Target entity: UACC-62 melanoma
Discrete label: high range
--
Compound: CCOC(=O)C1C(=O)NC(C(=O)OCC)(C(=O)OCC)C1CC (configuration not stated)
Target entity: UACC-62 melanoma
Discrete label: high range
--
Compound: COc1ccc(-c2cc(-c3cccnc3)nc(S(=O)(=O)CC(=O)Nc3ccc(C)cc3)c2C#N)cc1OC
Target entity: UACC-62 melanoma
Discrete label: high range
--
Compound: COc1ccc(NC(=O)[C@@H]2C[C@H]2c2ccccc2)c(C(N)=O)c1
Target entity: UACC-62 melanoma
Discrete label: high range
--
Compound: O=C(NC1CCS(=O)(=O)C1)c1ccc(C(=O)c2ccccc2)cc1 (configuration not stated)
Target entity: UACC-62 melanoma
Discrete label: high range
--
Compound: O=[N+]([O-])c1ccc2[nH]cc(-c3c4ccccc4cc4[nH]c5ccc([N+](=O)[O-])cc5c34)c2c1
Target entity: UACC-62 melanoma
Discrete label: low range
--
Compound: Cc1ccc(/C=C/C(=O)c2ccc(F)cc2)s1
Target entity: UACC-62 melanoma
Discrete label: mid range
--
Compound: O=C1CSC(c2ccccc2O)N1c1nnc(Cn2ccnc2)o1 (configuration not stated)
Target entity: UACC-62 melanoma
Discrete label: mid range
--
Compound: Cc1sc2nc(NCc3ccccc3)[nH]c(=O)c2c1C
Target entity: UACC-62 melanoma
Discrete label: low range
--
Compound: c1ccc(-c2n(Cc3ccc4ccccc4c3)cc[n+]2Cc2ccc3ccccc3c2)cc1
Target entity: UACC-62 melanoma
Discrete label: low range
--
Compound: O=C1/C(=C/c2ccccc2O)C(=S)SN1Cc1ccco1
Target entity: UACC-62 melanoma
Discrete label: high range
--
Compound: CCCCCN1C(=O)CCC1=O
Target entity: UACC-62 melanoma
Discrete label: high range

---

Tested on: BT-549 breast
Test: NCI-60 one-dose screen, 48 h (100 = growth as untreated, 0 = no growth, -100 = all killed)
Details: 10 µM unless noted
About 83,000 compounds went through this panel and 20% of them were active in at least one assay; those are over-represented in the sample as a whole. The source made the active and inactive calls. Rule for the calls: active = growth percent below 10; inactive = the rest.
Items are presented alongside their recorded growth.

Compound: N/C(=N\c1nc2ccccc2s1)NC(=O)Nc1ccccc1Cl
growth: 18.6% (inactive)

Compound: Cc1ccc2c(c1)C(=O)/C(=C\Nc1ccc(C(N)=O)cc1)C(O)O2 (stereo unspecified)
growth: 82.4% (inactive)

Compound: O=C1NC(=S)S/C1=C\c1cc(Br)ccc1O
growth: 104% (inactive)

Compound: OCCN1CCN(CCCN2c3ccccc3Sc3ccc(C(F)(F)F)cc32)CC1
growth: 53% (inactive)

Compound: N#Cc1c(NC(=O)c2ccco2)[n+]([O-])c2cc(Cl)c(Cl)cc2[n+]1[O-]
growth: 94.4% (inactive)

Compound: N#Cc1ccccc1C#Cc1ccccc1C#Cc1ccc(OCCCCCCOc2ccc(C#Cc3ccccc3C#Cc3ccccc3C#N)cc2)cc1
growth: 112% (inactive)

Compound: NS(=O)(=O)c1cc(C2(O)NC(=O)c3ccccc32)ccc1Cl (stereo unspecified)
growth: 97.7% (inactive)

Compound: COc1ccc(/C=C2\CCc3ccccc3C2=O)cc1
growth: 97.9% (inactive)

Compound: O=C1/C(=C/c2ccccc2Cl)CCc2ccccc21
growth: 108% (inactive)

Compound: CCCCNCCCN(CCCC)CCCNCCCC
growth: 97.2% (inactive)

Compound: O=C1c2cccc(NCCN=Cc3ccccc3O)c2C(=O)c2c(NCCN=Cc3ccccc3O)cccc21
growth: 49% (inactive)

---

System: K-562 leukemia
Test: NCI-60 one-dose screen, 48 h (100 = growth as untreated, 0 = no growth, -100 = all killed)
Settings: 10 µM unless noted
Protocol: Cells are grown in 96 well plates and exposed to the test compound for 48 hours. Compounds are tested at a single concentration, which is 10^-5 M for most compounds. The reported endpoint is percent growth (GI% or GIPRCNT), where numbers from 0 - 100% represent growth inhibition, and numbers from -100% - 0 represent cell death. For example, a value of 40 represents 60% growth inhibition. A value of 0 means no net growth occurred over the course of the experiment. […]
The panel holds about 83,000 compounds, 20% with a hit somewhere; the sample as a whole holds those more often.
Entries whose growth is below 20% take true; entries at or above 20% take false.

Compound: NS(=O)(=O)N(c1cc(C(F)(F)F)cc(C(F)(F)F)c1)C1CCN(Cc2ccc(C(F)(F)F)cc2)CC1
Discrete label: false
--
Compound: COc1ccc(-c2nnc3c4[nH]cnc4ncn23)c(OC)c1
Discrete label: true
--
Compound: Cc1nn2c(/C=C3/C(=O)Nc4cc(Cl)ccc43)c(-c3ccccc3)nc2s1
Discrete label: false
--
Compound: CC1CC=CCC1C1OCC(C)(C)CO1 (stereo not given)
Discrete label: false
--
Compound: N/C(=N\c1nc2ccccc2s1)NC(=O)Nc1ccccc1Cl
Discrete label: true
--
Compound: C#C[C@]1(O)CCC2C3CCc4cc(O)ccc4C3CC[C@@]21C (stereo not given in full)
Discrete label: true
--
Compound: COc1cc(C2=NN(C=O)C(c3cccc(Nc4ccnc5cc(Cl)ccc45)c3)C2)cc(OC)c1OC (stereo not given)
Discrete label: false
--
Compound: N#Cc1c(-c2ccccc2)cc(-c2ccccc2)n(CCCC(=O)O)c1=O
Discrete label: false
--
Compound: CSc1nc2nc3c(c(-c4ccc(C)cc4)c2c(=O)[nH]1)CN(C)C/C3=C\c1ccc(C)cc1
Discrete label: false
--
Compound: Cc1cc(C)c2c(N)c3cccc(C)c3nc2n1
Discrete label: true

---

Test system: IGROV1 ovarian
Assay: NCI-60 one-dose screen, 48 h (100 = growth as untreated, 0 = no growth, -100 = all killed)
Details: 10 µM unless noted
Compounds without any hit were thinned out: in the full panel of roughly 83,000, 20% have a hit.
Each entry below lists one item and its recorded growth value.

Molecule: COc1cccc(/C=N/Nc2nc3ccccc3s2)c1OC
Output unit: %
growth: 81.9

Molecule: CCCCc1ccc(C(N)=O)nc1
Output unit: %
growth: 19.4

Molecule: CC1CN(CC(O)c2ccc(Br)cc2)CCO1 (stereo unspecified)
Output unit: %
growth: 109

Molecule: CN(C)CCCN=c1cc2c(=O)n(CCCN(C)C)c(=O)c3c(NCCCN(C)C)cc4c(O)n(CCCN(C)C)c(=O)c1c4c3-2
Output unit: %
growth: -24.6

Molecule: COc1ccccc1NC(=O)c1sc2nc3c(cc2c1N)C(=O)CCC3
Output unit: %
growth: 82.9

Molecule: c1ccc(COc2ccc(Nc3ncnc4c3cnn4-c3ccccc3)cc2)cc1
Output unit: %
growth: 100

Molecule: CC1CN(C2CCCCC2)C(=O)NC1=O (stereo unspecified)
Output unit: %
growth: 110

Molecule: COc1cnc2c(c1)C(=O)c1c-2n(CCCN2CCC(O)CC2)c(=O)c2cc(F)ccc12
Output unit: %
growth: 1.69

Molecule: O=C(c1ccccc1)c1ccc(Oc2ccc([N+](=O)[O-])cc2[N+](=O)[O-])cc1
Output unit: %
growth: 1.87

Molecule: O=C1/C(=C/c2ccccc2Cl)CCc2ccccc21
Output unit: %
growth: 97.3

Molecule: CCSCC1CC(O)(c2ccccc2)C(c2ccccc2)C(c2ccc(Cl)cc2)O1 (stereo unspecified)
Output unit: %
growth: 32.6

Sourced from PubChem BioAssay (NCI)
